- Tested on: P388 murine leukemia cells
- assay-protocol: P388 in vitro antitumor screen (MTT, 48 h)
- Assay type: cell-based
- condition-parameters: Mus musculus; P388 murine leukemia cells, 48 h, MTT
Quick reference for log10 IC50 among some compounds
reported-property: log10 IC50 (log10 of the value in µg/mL)

{"columns": ["compound", "measured"],
 "data": [
  ["O=C(c1nc(-c2c[nH]c3ccccc23)c[nH]1)c1c[nH]c2cc(O)ccc12 [Compound 1, Topsentin]", 0.30],
  ["O=C(c1nc(-c2c[nH]c3cc(O)ccc23)c[nH]1)c1c[nH]c2ccccc12 [Compound 4, Isotopsentin]", 0.60],
  ["O=C(c1nc(-c2c[nH]c3cc(Br)ccc23)c[nH]1)c1c[nH]c2cc(O)ccc12 [Compound 2, Bromotopsentin]", 0.85],
  ["O=C(c1nc(-c2c[nH]c3ccc(O)cc23)c[nH]1)c1c[nH]c2ccccc12 [Compound 8, Neoisotopsentin]", 0.26],
  ["O=C(c1nc(-c2c[nH]c3ccccc23)c[nH]1)c1c[nH]c2ccc(O)cc12 [Compound 7, Neotopsentin]", 0.40],
  ["O=C(c1nc(-c2c[nH]c3cc(O)ccc23)c[nH]1)c1c[nH]c2cc(O)ccc12 [Compound 5, Hydroxytopsentin]", -0.52]
]}
